The origin of these recorded values is PubChem BioAssay AID1628.

assay: insulin promoter down-regulators in MIN6 cells, imaging, high-content screening, mouse beta cells (AID 1628); details: MIN6 insulin promoter GFP reporter, at 5 µM, active compounds read low
Among all 190,000 compounds or so, about 930 (0.49%) were called active. The list shows a part of the results. Entries with a potency or affinity are not part of this list.
Consider the cut-off -3. If the recorded z-score is strictly smaller, the label is y; if not, the label is n.

COMPOUND: O=[N+]([O-])c1ccc(NCc2ccccc2)c2nonc12
LABEL: n

COMPOUND: COc1ccccc1CN1CCN(C(=O)COc2ccccc2)CC1
LABEL: y

COMPOUND: COc1ccc(CC(=O)N2CCN(C)CC2)cc1
LABEL: n

COMPOUND: CC(C)(C)c1nc(NCc2ccc3c(c2)OCO3)c2nnn(Cc3ccccc3Cl)c2n1
LABEL: n

COMPOUND: COc1ccc(Cl)cc1NC1=NCC(C)S1 (stereo unspecified)
LABEL: y

COMPOUND: Cc1ccc(Cn2nnnc2CN2CCC(n3nnc4cc(C(F)(F)F)ccc43)CC2)cc1
LABEL: y
